Tested on: RNA polymerase II Serine 5 phosphorylation in A549 cells overexpressing CDK7 mutant (C312S)
Assay: Imaging-based cellular RNA PolII Ser5 phosphorylation assay in A549 cells overexpressing CDK7-mutant (C312S)
Type: cell-based, human
Settings: Homo sapiens, A549, A549 cells overexpressing CDK7 mutant (C312S); read-out: CDK7_ A549 mutant hCDK7(pIC50) (converted)
Recorded IC50, one value per entry.

>  <chem-smiles>
C=CC(=O)N1CC(N2CC(c3cc4c(c(C)n3)OCc3c(ncnc3N3CCS(=O)(=O)CC3)N4)C2)C1

>  <IC50>
> 10 µM

$$$$
>  <chem-smiles>
C=CC(=O)N1CC(N2CC=C(c3ccc4c(c3)Nc3ncnc(N5CCOCC5)c3CO4)CC2)C1

>  <IC50>
> 10 µM

$$$$
>  <chem-smiles>
C=CC(=O)N1CCC(N2CC(c3cc(C)c4c(c3)Nc3ncnc(N5CCOCC5)c3CO4)C2)CC1

>  <IC50>
> 10 µM

$$$$

These data points were gathered from patent US20240109912A1.
